Recorded measurements of viability, T/C, one per entry
- Test system: 276233-004-R-J1-PDC KRAS spheroids with HUVEC/MSC, viability
- measurement-notes: Anticancer human tumor 276233-004-R-J1-PDC patient-derived colon adenocarcinoma cell line growth inhibition [KRAS2]
- assay-setup: second compound 0.316 µM; first compound 0.1 µM; stronger effect = lower value
Unit % implied. Number only.

Below: 4 compounds and their reported viability, T/C.
[
  {
    "compound": "CC(C)NCC(C(=O)N1CCN(c2ncnc3c2C(C)CC3O)CC1)c1ccc(Cl)cc1 (stereo not given) + CNCc1ccccc1-c1csc(C(C)Nc2nc(C)nc3cc(OC)c(OC)cc23)c1",
    "scale-unit": "%",
    "viability, T/C": 96.1
  },
  {
    "compound": "CCN1CCN(Cc2ccc(Nc3ncc(F)c(-c4cc(F)c5nc(C)n(C(C)C)c5c4)n3)nc2)CC1 + COc1cc2nc(C)nc(NC(C)c3cc(N)cc(C(F)(F)F)c3)c2cc1OC1CCOC1",
    "scale-unit": "%",
    "viability, T/C": 107
  },
  {
    "compound": "Cn1nccc1Nc1nccc(-c2cc3c(s2)C(C)(C)N(CCN2CCOCC2)C3=O)n1 + C=CC(=O)N1CCN(c2nc(OCC3CCCN3C)nc3c2CCN(c2cccc4cccc(C)c24)C3)CC1CC#N",
    "scale-unit": "%",
    "viability, T/C": 98
  },
  {
    "compound": "COc1cc(Nc2ncc3c(n2)-c2ccc(Cl)cc2C(c2c(F)cccc2OC)=NC3)ccc1C(=O)O + CNCc1ccccc1-c1csc(C(C)Nc2nc(C)nc3cc(OC)c(OC)cc23)c1",
    "scale-unit": "%",
    "viability, T/C": 93
  }
]

Next:
Sample COc1cc2nccc(Oc3ccc(NC(=O)C4(C(=O)Nc5ccc(F)cc5)CC4)cc3)c2cc1OC + CC1OCC2(CCN(c3cnc(Sc4ccnc(N)c4Cl)c(N)n3)CC2)C1N — what was its viability, T/C?
64.7

###

viability, T/C values by entry
- Test system: 276233-004-R-J1-PDC KRAS spheroids with HUVEC/MSC, viability
- measurement-notes: Anticancer human tumor 276233-004-R-J1-PDC cell line growth inhibition [KRAS2];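 note: cells exposed to agents for seven days before viability read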;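 for viability, T/C: 100% = DMSO vehicle control wells and lower values mean fewer viable cells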
- assay-setup: second compound 0.1 µM; first compound 1 µM; stronger effect = lower value
- Text: Multicellular complex tumor spheroid response to RAS pathway inhibitors in combination with a targeted agents in patient-derived cell lines with oncogenic KRAS variants from multiple cancer types A high-throughput screen of multi-cell type tumor spheroids was designed to identify active combinations of targeted small molecules and KRAS pathway inhibitors. […] Compounds. […] If the clinical Cmax for an agent had not been determined, the highest concentration tested was 10 microM. […]
The reply should be a number in %, with the unit left off.

[
  {
    "compound": "COc1cc(Nc2ncc3c(n2)-c2ccc(Cl)cc2C(c2c(F)cccc2OC)=NC3)ccc1C(=O)O + C=CC(=O)N1CCN(c2nc(=O)n(-c3c(C)ccnc3C(C)C)c3nc(-c4c(O)cccc4F)c(F)cc23)C(C)C1",
    "recorded-result": 104
  }
]

Consider the compound shown here: COc1cc2nccc(Oc3ccc(NC(=O)C4(C(=O)Nc5ccc(F)cc5)CC4)cc3)c2cc1OC + CC1OCC2(CCN(c3cnc(Sc4ccnc(N)c4Cl)c(N)n3)CC2)C1N What is its recorded viability, T/C?
75.1

Tell me the measured viability, T/C of CC1OCC2(CCN(c3cnc(Sc4ccnc(N)c4Cl)c(N)n3)CC2)C1N (stereo not given) + CNCc1ccccc1-c1csc(C(C)Nc2nc(C)nc3cc(OC)c(OC)cc23)c1 , please.
82

Need viability, T/C, item COc1cc2nccc(Oc3ccc(NC(=O)C4(C(=O)Nc5ccc(F)cc5)CC4)cc3)c2cc1OC + CNCc1ccccc1-c1csc(C(C)Nc2nc(C)nc3cc(OC)c(OC)cc23)c1
88.3

Please report the recorded viability, T/C for CCN1CCN(Cc2ccc(Nc3ncc(F)c(-c4cc(F)c5nc(C)n(C(C)C)c5c4)n3)nc2)CC1 + C=CC(=O)N1CCN(c2nc(OCC3CCCN3C)nc3c2CCN(c2cccc4cccc(C)c24)C3)CC1CC#N .
96.4

###

- Tested on: 276233-004-R-J1-PDC KRAS spheroids with HUVEC/MSC, viability
- measurement-notes: Anticancer human tumor 276233-004-R-J1-PDC cell line growth inhibition [KRAS2];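 note: cells exposed to agents for seven days before viability read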;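 for viability, T/C: 100% = DMSO vehicle control wells and lower values mean fewer viable cells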
- assay-setup: second compound 0.1 µM; first compound 0.1 µM; stronger effect = lower value
Known viability, T/C of a selection of compounds
Quick note: give the figure in %, leave out the unit.

Query: viability, T/C; subject: CCN1CCN(Cc2ccc(Nc3ncc(F)c(-c4cc(F)c5nc(C)n(C(C)C)c5c4)n3)nc2)CC1 + C=CC(=O)N1CCN(c2nc(OCC3CCCN3C)nc3c2CCN(c2cccc4cccc(C)c24)C3)CC1CC#N
81

###

- System: 276233-004-R-J1-PDC KRAS spheroids with HUVEC/MSC, viability
- measurement-notes: Anticancer human tumor 276233-004-R-J1-PDC cell line growth inhibition [KRAS2];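 note: cells exposed to agents for seven days before viability read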;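 for viability, T/C: 100% = DMSO vehicle control wells and lower values mean fewer viable cells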
- assay-setup: second compound 0.316 µM; first compound 3.16 µM; stronger effect = lower value
- From the text: Multicellular complex tumor spheroid response to RAS pathway inhibitors in combination with a targeted agents in patient-derived cell lines with oncogenic KRAS variants from multiple cancer types A high-throughput screen of multi-cell type tumor spheroids was designed to identify active combinations of targeted small molecules and KRAS pathway inhibitors. […] Compounds. […] If the clinical Cmax for an agent had not been determined, the highest concentration tested was 10 microM. […]
Quick rule for you: viability, T/C under 70% gets fulfilled, anything else gets not fulfilled.

[
  {
    "compound": "Cn1nccc1Nc1nccc(-c2cc3c(s2)C(C)(C)N(CCN2CCOCC2)C3=O)n1 + CC1OCC2(CCN(c3cnc(Sc4ccnc(N)c4Cl)c(N)n3)CC2)C1N",
    "assigned-label": "fulfilled"
  }
]

Take the compound CC(=O)OC12COC1CC(O)C1(C)C(=O)C(O)C3=C(C)C(OC(=O)C(O)C(NC(=O)OC(C)(C)C)c4ccccc4)CC(O)(C(OC(=O)c4ccccc4)C21)C3(C)C (stereo not given) + CNCc1ccccc1-c1csc(C(C)Nc2nc(C)nc3cc(OC)c(OC)cc23)c1 and say whether its viability, T/C is less than 70%.
not fulfilled

# TODO verify viability, T/C < 70% strictly for this compound: COc1cc2nccc(Oc3ccc(NC(=O)C4(C(=O)Nc5ccc(F)cc5)CC4)cc3)c2cc1OC + COc1cc2nc(C)nc(NC(C)c3cc(N)cc(C(F)(F)F)c3)c2cc1OC1CCOC1
not fulfilled

Field: below-cutoff. Rule: recorded viability, T/C strictly less than 70%. Subject: Cn1nccc1Nc1nccc(-c2cc3c(s2)C(C)(C)N(CCN2CCOCC2)C3=O)n1 + CNCc1ccccc1-c1csc(C(C)Nc2nc(C)nc3cc(OC)c(OC)cc23)c1
fulfilled

Find out if reported viability, T/C for Cn1nccc1Nc1nccc(-c2cc3c(s2)C(C)(C)N(CCN2CCOCC2)C3=O)n1 + C=CC(=O)N1CCN(c2nc(=O)n(-c3c(C)ccnc3C(C)C)c3nc(-c4c(O)cccc4F)c(F)cc23)C(C)C1 is less than 70%
fulfilled

###

- Tested on: 276233-004-R-J1-PDC KRAS spheroids with HUVEC/MSC, viability
- measurement-notes: Anticancer human tumor 276233-004-R-J1-PDC cell line growth inhibition [KRAS2];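 note: cells exposed to agents for seven days before viability read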
- assay-setup: curve of first compound; second compound 10 µM
measurement-type: IC50

Please review the following examples before continuing.
[
  {
    "compound": "Cn1ncnc1[C@H]1c2n[nH]c(=O)c3cc(F)cc(c23)N[C@@H]1c1ccc(F)cc1 + CNCc1ccccc1-c1csc(C(C)Nc2nc(C)nc3cc(OC)c(OC)cc23)c1",
    "IC50": "< 0.316 nM"
  },
  {
    "compound": "CCN1CCN(Cc2ccc(Nc3ncc(F)c(-c4cc(F)c5nc(C)n(C(C)C)c5c4)n3)nc2)CC1 + C=CC(=O)N1CCN(c2nc(=O)n(-c3c(C)ccnc3C(C)C)c3nc(-c4c(O)cccc4F)c(F)cc23)C(C)C1",
    "IC50": "> 1000 nM"
  },
  {
    "compound": "CC1(C)CCC(CN2CCN(c3ccc(C(=O)NS(=O)(=O)c4ccc(NCC5CCOCC5)c([N+](=O)[O-])c4)c(Oc4cnc5[nH]ccc5c4)c3)CC2)=C(c2ccc(Cl)cc2)C1 + COc1cc2nc(C)nc(NC(C)c3cc(N)cc(C(F)(F)F)c3)c2cc1OC1CCOC1",
    "IC50": "< 31.6 nM"
  },
  {
    "compound": "CC1(C)CCC(CN2CCN(c3ccc(C(=O)NS(=O)(=O)c4ccc(NCC5CCOCC5)c([N+](=O)[O-])c4)c(Oc4cnc5[nH]ccc5c4)c3)CC2)=C(c2ccc(Cl)cc2)C1 + C=CC(=O)N1CCN(c2nc(=O)n(-c3c(C)ccnc3C(C)C)c3nc(-c4c(O)cccc4F)c(F)cc23)C(C)C1",
    "IC50": "> 10000 nM"
  },
  {
    "compound": "CC1OCC2(CCN(c3cnc(Sc4ccnc(N)c4Cl)c(N)n3)CC2)C1N (stereo not given) + COc1cc2nc(C)nc(NC(C)c3cc(N)cc(C(F)(F)F)c3)c2cc1OC1CCOC1",
    "IC50": "41.1 nM"
  }
]

What value of IC50 has been recorded for this entry: CC1OCC2(CCN(c3cnc(Sc4ccnc(N)c4Cl)c(N)n3)CC2)C1N (stereo not given) + CNCc1ccccc1-c1csc(C(C)Nc2nc(C)nc3cc(OC)c(OC)cc23)c1
< 31.6 nM

I am curious: what IC50 value has been reported for CC1COCCN1c1cc(-c2ccnn2C)c2ccnc(-c3ccn[nH]3)c2n1 (stereo not given) + CC1OCC2(CCN(c3cnc(Sc4ccnc(N)c4Cl)c(N)n3)CC2)C1N ?
737 nM

# query: IC50 of entry CC(C)n1nc(-c2ccc3oc(N)nc3c2)c2c(N)ncnc21 + CC1OCC2(CCN(c3cnc(Sc4ccnc(N)c4Cl)c(N)n3)CC2)C1N
7.82 nM

Requested read-out: IC50. Entry: CN(C)C/C=C/C(=O)Nc1cc2c(Nc3ccc(F)c(Cl)c3)ncnc2cc1O[C@H]1CCOC1 + COc1cc2nc(C)nc(NC(C)c3cc(N)cc(C(F)(F)F)c3)c2cc1OC1CCOC1
> 100 nM

Entry CC1OCC2(CCN(c3cnc(Sc4ccnc(N)c4Cl)c(N)n3)CC2)C1N (stereo not given) + C=CC(=O)N1CCN(c2nc(=O)n(-c3c(C)ccnc3C(C)C)c3nc(-c4c(O)cccc4F)c(F)cc23)C(C)C1 has what IC50?
> 10000 nM
